- assay_system: human urokinase (Homo sapiens, UniProt P00749)
- test_name: biochemical
- conditions: Table 2; substrate S-2444, pH 8.8, 37° C.; read-out: Urokinase S-2444 I50
Where a name gives a salt, the structure may show the parent alone.
measured_endpoint: IC50

Problem: Quick one: IC50 of NC[C@H]1CC[C@H](C(=O)NC(Cc2cccc(Oc3ccccc3)c2)C(=O)N2CCC(C(=O)O)CC2)CC1 (stereo partly drawn) [Compound 17] ?
Solution: > 500 µM

Problem: Quick one: IC50 of COCCCNC(=O)C(Cc1cccc(C(=O)c2ccccc2)c1)NC(=O)[C@H]1CC[C@H](CN)CC1 (stereo partly drawn) [Compound 23] ?
Solution: > 500 µM

Problem: Quick one: IC50 of NC[C@H]1CC[C@H](C(=O)NC(Cc2cccc(Oc3ccccc3)c2)C(=O)Nc2ncccc2C(=O)O)CC1 (mixture of isomers) [Compound 10, dihydrobromide] ?
Solution: > 250 µM

---

For each entry below, report its IC50 value.
- assay_system: bovine thrombin (Bos taurus, UniProt P00735)
- Construct: a 0.2 unit/ml bovine thrombin solution
- test_name: Antithrombin activity: inhibition of fibrin formation (fibrinogen)
- Type: biochemical
- conditions: Table 2; bovine fibrinogen, pH 7.4, 37° C.; read-out: Thrombin Fibrinogen I50 (concentration doubling coagulation time)

Problem: Quick one: IC50 of CCOC(=O)C1CCN(C(=O)C(Cc2cccc(Oc3ccccc3)c2)NC(=O)[C@H]2CC[C@H](CNC(=N)N)CC2)CC1 (stereo partly shown) ?
Solution: > 100 µM

Problem: Quick one: IC50 of CC(=O)c1ccc(NC(=O)C(Cc2cccc(Oc3ccccc3)c2)NC(=O)c2ccc(NC(=N)N)cc2)cc1 (stereo not shown) ?
Solution: > 25 µM

Problem: Quick one: IC50 of COCCCNC(=O)C(Cc1cccc(C(=O)c2ccccc2)c1)NC(=O)[C@H]1CC[C@H](CN)CC1 (stereo partly shown) ?
Solution: > 1000 µM

Problem: Quick one: IC50 of NC[C@H]1CC[C@H](C(=O)NC(Cc2cccc(Oc3ccccc3)c2)C(=O)N2CCOCC2)CC1 (stereo partly shown) ?
Solution: > 1000 µM

---

For each entry below, report its IC50 value.
- assay_system: bovine thrombin (Bos taurus, UniProt P00735)
- Construct: a 0.2 unit/ml bovine thrombin solution
- test_name: Antithrombin activity: inhibition of fibrin formation (fibrinogen)
- Type: biochemical
- conditions: Table 2; bovine fibrinogen, pH 7.4, 37° C.; read-out: Thrombin Fibrinogen I50 (concentration doubling coagulation time)
Where a name gives a salt, the structure may show the parent alone.

Problem: Quick one: IC50 of CCOC(=O)C1CCN(C(=O)C(Cc2cccc(Oc3ccccc3)c2)NC(=O)[C@H]2CC[C@H](CN)CC2)CC1 (some centres unmarked) ?
Solution: > 100 µM

Problem: Quick one: IC50 of NC[C@H]1CC[C@H](C(=O)NC(Cc2cccc(C(=O)c3ccccc3)c2)C(=O)N2CCOCC2)CC1 (some centres unmarked) ?
Solution: > 1000 µM

Problem: Quick one: IC50 of CCOC(=O)C(Cc1cccc(Oc2ccccc2)c1)NC(=O)[C@H]1CC[C@H](CN)CC1 (mixture of isomers) [Compound 57, hydrochloride] ?
Solution: > 1000 µM

Problem: Quick one: IC50 of NC[C@H]1CC[C@H](C(=O)NC(Cc2cccc(Oc3ccccc3)c2)C(=O)Nc2ccncn2)CC1 (mixture of isomers) [Compound 12, dihydrochloride] ?
Solution: > 1000 µM

Problem: Quick one: IC50 of COC(=O)[C@@H](C)NC(=O)C(Cc1cccc(Oc2ccccc2)c1)NC(=O)[C@H]1CC[C@H](CN)CC1 (some centres unmarked) ?
Solution: > 1000 µM

---

- assay_system: UniProtKB P00747
- Sequence (P00747 581-810 limits assumed): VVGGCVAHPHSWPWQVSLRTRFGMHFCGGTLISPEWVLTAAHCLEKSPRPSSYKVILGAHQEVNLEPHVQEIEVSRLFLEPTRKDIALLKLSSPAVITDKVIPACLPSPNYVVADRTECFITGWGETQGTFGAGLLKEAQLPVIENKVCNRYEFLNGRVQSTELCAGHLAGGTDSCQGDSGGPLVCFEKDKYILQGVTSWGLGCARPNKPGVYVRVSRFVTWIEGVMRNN
- Sequence (P00747 97-580 limits assumed): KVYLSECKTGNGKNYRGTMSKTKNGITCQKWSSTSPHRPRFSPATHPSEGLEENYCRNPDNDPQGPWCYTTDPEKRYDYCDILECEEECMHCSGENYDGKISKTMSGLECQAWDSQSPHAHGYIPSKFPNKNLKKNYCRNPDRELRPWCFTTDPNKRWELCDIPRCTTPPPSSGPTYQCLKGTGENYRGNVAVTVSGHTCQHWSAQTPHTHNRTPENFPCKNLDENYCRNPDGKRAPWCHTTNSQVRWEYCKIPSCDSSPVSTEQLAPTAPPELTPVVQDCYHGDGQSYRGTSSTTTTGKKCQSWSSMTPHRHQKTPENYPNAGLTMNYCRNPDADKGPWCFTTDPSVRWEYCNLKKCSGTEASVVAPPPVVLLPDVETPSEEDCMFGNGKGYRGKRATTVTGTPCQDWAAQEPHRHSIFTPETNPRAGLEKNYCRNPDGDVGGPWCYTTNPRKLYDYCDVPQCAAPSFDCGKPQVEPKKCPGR
- test_name: Antiplasmin activity: inhibition of S-2251 decomposition
- Type: biochemical
- conditions: Table 2; substrate S-2251, pH 7.4, 37° C.
pIC50: −log10 of the molar value. Where a name gives a salt, the structure may show the parent alone.
measured_endpoint: pIC50

Problem: Quick one: pIC50 of NC[C@H]1CC[C@H](C(=O)NC(Cc2cccc(C(=O)c3ccccc3)c2)C(=O)N2CCOCC2)CC1 (stereo partly shown) ?
Solution: < 3.00

Problem: Quick one: pIC50 of CC(=O)c1ccc(NC(=O)C(Cc2cccc(Oc3ccccc3)c2)NC(=O)[C@H]2CC[C@H](CNC(=N)N)CC2)cc1 (mixture of isomers) ?
Solution: < 4.70

Problem: Quick one: pIC50 of NC[C@H]1CC[C@H](C(=O)NC(Cc2cccc(Oc3ccccc3)c2)C(=O)NCC(=O)c2ccccc2)CC1 (stereo partly shown) ?
Solution: < 4.00

Problem: Quick one: pIC50 of NC[C@H]1CC[C@H](C(=O)NC(Cc2cccc(OCc3ccccc3)c2)C(=O)Nc2cccnc2)CC1 (mixture of isomers) [Compound 22, dihydrochloride] ?
Solution: < 3.00

---

- assay_system: human plasma kallikrein (Homo sapiens, UniProt P03952)
- Sequence (P03952 391-638 limits assumed): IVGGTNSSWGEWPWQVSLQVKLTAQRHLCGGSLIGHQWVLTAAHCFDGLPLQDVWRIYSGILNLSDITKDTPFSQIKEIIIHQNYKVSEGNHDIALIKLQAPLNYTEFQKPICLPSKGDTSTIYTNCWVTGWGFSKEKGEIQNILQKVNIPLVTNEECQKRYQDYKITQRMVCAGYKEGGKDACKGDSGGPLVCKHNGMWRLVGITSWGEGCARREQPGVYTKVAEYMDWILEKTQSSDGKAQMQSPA
- Sequence (P03952 20-390 limits assumed): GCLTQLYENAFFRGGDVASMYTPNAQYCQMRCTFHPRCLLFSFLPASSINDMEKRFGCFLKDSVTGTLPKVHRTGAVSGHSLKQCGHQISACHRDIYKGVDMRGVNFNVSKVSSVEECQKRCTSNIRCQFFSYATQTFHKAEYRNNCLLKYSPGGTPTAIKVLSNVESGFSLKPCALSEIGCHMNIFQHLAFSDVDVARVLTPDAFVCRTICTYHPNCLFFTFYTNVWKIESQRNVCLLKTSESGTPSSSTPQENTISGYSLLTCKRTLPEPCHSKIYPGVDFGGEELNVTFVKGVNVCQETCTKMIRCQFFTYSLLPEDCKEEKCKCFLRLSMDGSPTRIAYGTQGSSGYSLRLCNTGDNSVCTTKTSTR
- test_name: Anti-plasma kallikrein activity: inhibition of S-2302 decomposition
- Type: biochemical
- conditions: Table 2; substrate S-2302, pH 7.8, 37° C.; read-out: Plasma Kallikrein S-2302 I50
Where a name gives a salt, the structure may show the parent alone.
For each entry below, report its IC50 value.

Problem: Quick one: IC50 of CC(=O)c1ccc(NC(=O)C(Cc2cccc(Oc3ccccc3)c2)NC(=O)[C@H]2CC[C@H](CNC(=N)N)CC2)cc1 (mixture of isomers) ?
Solution: > 10 µM

Problem: Quick one: IC50 of NC[C@H]1CC[C@H](C(=O)NC(Cc2cccc(Oc3ccccc3)c2)C(=O)NCC(=O)c2ccccc2)CC1 (stereo partly drawn) ?
Solution: > 200 µM

Problem: Quick one: IC50 of NC[C@H]1CC[C@H](C(=O)NC(Cc2cccc(Oc3ccc(Br)cn3)c2)C(=O)N2CCOCC2)CC1 (stereo partly drawn) ?
Solution: > 1000 µM

Problem: Quick one: IC50 of NC[C@H]1CC[C@H](C(=O)NC(Cc2cccc(C(=O)c3ccccc3)c2)C(=O)N2CCOCC2)CC1 (stereo partly drawn) ?
Solution: > 1000 µM

Problem: Quick one: IC50 of NC[C@H]1CC[C@H](C(=O)NC(Cc2cccc(Oc3ccccc3)c2)C(=O)N2CCOCC2)CC1 (stereo partly drawn) ?
Solution: > 1000 µM

Problem: Quick one: IC50 of NC[C@H]1CC[C@H](C(=O)NC(Cc2cccc(C(F)(F)F)c2)C(=O)N2CCOCC2)CC1 (mixture of isomers) [Compound 29, hydrochloride] ?
Solution: > 1000 µM

Problem: Quick one: IC50 of CCOC(=O)c1ccccc1NC(=O)C(Cc1cccc(Oc2ccccc2)c1)NC(=O)[C@H]1CC[C@H](CN)CC1 (mixture of isomers) [Compound 4, hydrochloride] ?
Solution: > 100 µM

Problem: Quick one: IC50 of COC(=O)[C@@H](C)NC(=O)C(Cc1cccc(Oc2ccccc2)c1)NC(=O)[C@H]1CC[C@H](CN)CC1 (stereo partly drawn) ?
Solution: > 1000 µM

Problem: Quick one: IC50 of NC[C@H]1CC[C@H](C(=O)NC(Cc2cccc(Oc3ccccc3)c2)C(=O)Nc2nnn[nH]2)CC1 (stereo partly drawn) ?
Solution: > 200 µM
